- System: Plasmodium falciparum
- test.details: GSK_TCMDC: Inhibition of Plasmodium falciparum 3D7 in whole erythrocytes, using parasite LDH activity as an index of growth.
- Assay type: functional, organism-based
- experimental.context: Plasmodium falciparum, 3D7
measured.parameter: XC50 (µM)
Respond numerically; units are µM and should not be typed.

Field: XC50 (Plasmodium falciparum). Entry: O=C(Nc1cccc(CN2CCCN(CC3CCCCC3)CC2)c1)c1ccc(Cl)c(Cl)c1
0.962

Then this compound: CN(C)C(=O)c1cc(CNCc2ccccc2)ccc1-c1cccc(CNCc2ccc(-c3ccccc3)cc2)c1
1.05

Thanks! And OC1(c2ccc(Cl)c(C(F)(F)F)c2)CCN(CCOC2c3ccccc3CSc3ccc(Cl)cc32)CC1 (centres undefined) ?
0.799

Input O=C(/C=C/c1ccc(Cl)c(Cl)c1)NC1CCC(CN2CCC(c3coc4ccccc34)CC2)CC1 (centres undefined)
0.826

Repeat for the following compound: Clc1cc(Nc2ccnc3ccc(Br)cc23)ccc1Oc1ccc2ccccc2c1Cl
0.725

Similarly, C[C@H](Cc1ccc(OCCNC[C@H](O)c2cccc(Cl)c2)cc1)NC[C@H](O)c1ccc(Cl)c(Cl)c1 ?
0.958

Same read-out for O=C(Cc1cccc(OCCCN(Cc2cccc(C(F)(F)F)c2Cl)CC(c2ccccc2)c2ccccc2)c1)NCc1ccco1 ?
0.937

Lookup O=C(CN1CCN(S(=O)(=O)C=Cc2ccccc2)CC1)Nc1cc(C(F)(F)F)ccc1Cl
0.776

Repeat for the following compound: Cc1cc(N/N=C/c2ccccc2[N+](=O)[O-])c2cc(C(F)(F)F)ccc2n1
0.75

Now this one: CNC(=O)/C=C/c1cc(NC(=O)Nc2cc(C)nc3c(F)cccc23)ccc1OC
0.908

And CC(C)CNC(=O)c1ccnc(-c2ccc(CNCCCc3ccccc3)cc2)c1 ?
0.728

Try the compound O=S(=O)(NC1CCN(c2ccnc3cc(Cl)ccc23)C1)c1ccc(F)cc1 (centres undefined)
0.475

Queued: CC[C@H](C)CNC(=O)c1cncc(-c2ccc(CN(C)C3CCN(C)CC3)cc2)c1
0.987

Then what about the compound COc1ccc(NC(=O)[C@H](Cc2ccccc2)Nc2cc(C)nc(NCCc3ccccn3)n2)cc1 ?
0.834

Do the same for OCCNc1nc(Nc2cccc(O)c2)nc2ccccc12 please
0.389

Similarly, CCCCCCCCc1c(C)nc(C)c(C#N)c1O ?
0.402

CN1CCCC(CN2CCN(Cc3ccc(-c4ccc(-c5nc6cc(F)ccc6[nH]5)s4)cc3)CC2)C1 (centres undefined) , same question.
0.127

Note, next up: COC(=O)c1ccc(CC(C)NCC(O)c2ccc3ccc4ccccc4c3c2)cc1 (centres undefined)
0.223

Another compound to check: Cc1ccc(NC(=O)NC2CCN(CCC(NC(=O)Cc3ccccc3)c3ccc(Cl)c(Cl)c3)CC2)cc1 (centres undefined)
0.619

* * *

- Tested on: Plasmodium falciparum
- test.details: GSK_TCMDC: Inhibition of Plasmodium falciparum 3D7 in whole erythrocytes, using parasite LDH activity as an index of growth.
- Format: functional, organism-based
- experimental.context: Plasmodium falciparum, 3D7
measured.parameter: XC50
Answer as a quantity: numeral, then unit.

# lookup: XC50 of COc1cccc(Nc2nc(Nc3cccc(C#N)c3)cc(C(F)(F)F)n2)c1
834 nM

Ok, now N#Cc1ccc(-c2ccc(OCC(O)CN3CCCN(C(=O)C(c4ccc5c(c4)OCO5)N4CCN(C/C=C/c5ccccc5)CC4)CC3)cc2)cc1 (stereo not given)
654 nM

Note, next up: CC(C)(CN)c1cc(-c2ccc(Cl)c(O)c2)c(-c2ccncc2)o1
1140 nM

How about COc1ccc(NC(=O)NC2CCN(CCCOc3ccnc4cc(Cl)ccc34)C2)cc1OC (stereo not given) ?
792 nM

How about this molecule: Oc1c(Cl)cc(-c2ccccc2)cc1CNC1CCCCC1
749 nM

Now try O=C(Nc1nc(-c2ccccn2)cc2ccccc12)c1cccc(Cl)c1 .
754 nM

Try this molecule too: CCC(C)NS(=O)(=O)c1ccc2nc(Nc3cccc(SC)c3)n(C(C)C(C)C)c2c1 (stereo not given)
503 nM

Can you check O=C(CCc1cccnc1)Nc1ccc(-c2cccc(-c3nc4cc(F)ccc4[nH]3)c2)cc1 next?
922 nM

And then COc1ccc(-c2cc3ncnc(N4CCN(CCN5CCCC5)CC4)c3s2)cc1 , what is it?
831 nM

Again, but for Cc1ccc2c(-c3ccc([N+](=O)[O-])o3)cc(C)nc2c1
43.7 nM

* * *

- System: Plasmodium falciparum
- test.details: GSK_TCMDC: Inhibition of Plasmodium falciparum 3D7 in whole erythrocytes, using parasite LDH activity as an index of growth.
- Type: functional, organism-based
- experimental.context: Plasmodium falciparum, 3D7
measured.parameter: XC50 (nM)
The reply should be a number in nM, with the unit left off.

Fill in the recorded XC50 for this compound, with Plasmodium falciparum as test system: O=C(Nc1ccc(S(=O)(=O)N2CCCCCC2)cc1)c1cc(-c2ccccc2O)n[nH]1
717

Further, for Cc1cc(C2CCN(CCCCNC(=O)c3ccc(-c4ccc(C(F)(F)F)cc4)cc3)CC2)c(C)cc1OCC#N ?
1010

How about CN1CCN(CCc2ccc(N/C=C3\C(=O)Nc4ccc5ncccc5c43)cc2)CC1 ?
325

Could you do the same for CC(=O)Nc1csc(-c2cnc(/C=C(\C)C[C@@H]3OC[C@H](C[C@@H]4O[C@H]4[C@@H](C)[C@H](C)O)[C@@H](O)[C@H]3O)o2)c1 , please?
178

Also check O=C(N/N=C/c1nc2ccccc2[nH]1)c1cccc([N+](=O)[O-])c1
628

Again, but for CC(C)CC(NC(=O)c1cccc(OCCN2CCOCC2)c1)C(=O)NC(/C=N/NC(=O)c1ccccc1)CCc1ccccc1 (centres undefined)
251

Param item: CCCc1cc(Cc2cnc(N)nc2N)cc(OC)c1OC
988

Repeat for the following compound: O=C(O)C1Cc2c([nH]c3ccccc23)C(c2ccc(Cl)cc2Cl)N1 (centres undefined)
954

Let us now turn to Cc1cc(OCCCN2CCCCC2)ccc1NC(=O)COc1ccc(Cl)cc1C(=O)c1cc(C#N)cc(C(F)(F)F)c1
1030

* * *

Please provide measured log10 of XC50 for the entries that follow.
- Tested on: Plasmodium falciparum
- test.details: GSK_TCMDC: Inhibition of Plasmodium falciparum 3D7 in whole erythrocytes, using parasite LDH activity as an index of growth.
- Format: functional, organism-based
- experimental.context: Plasmodium falciparum, 3D7
Could you please treat all values as log10 of XC50 in nM?

For the compound CCN(CC)c1nc(-c2ccccc2)cc(-c2ccccc2)c1C#N , what log10 of XC50 is on record?
2.65

Item: O=C(Nc1ccc(CCNCCCc2ccccc2)cc1)Nc1ccc(Cl)c(Cl)c1
2.44

Moving on to Cc1cc(NCCc2ccccc2)nc(NC(=N)Nc2cccc([N+](=O)[O-])c2)n1
2.15

Next: CN(CCON1C(=N)N=C(N)NC1(C)C)c1ccccc1
1.29

Also Cc1cc(=O)[nH]c(-n2nc(C)cc2NC(=O)CC(c2ccccc2)c2ccccc2)n1 , if possible.
3.04

// repeat for COc1ccc2c(=O)ccn(CCN3CCC(NCc4ccc5c(n4)NC(=O)CS5)CC3)c2c1 and report
2.37

Same question for CC(Cl)=CCc1c(C)nc2c(ccc3ccccc32)c1O please.
2.30

Also need Cc1ccc(NC(=O)c2c(C)noc2-c2snnc2C)cc1 , thanks.
3.14

One more compound: CSC1=NC(C)(C)CC2(CC(c3cccc(C)c3)c3cc(Cl)c(O)cc3O2)N1 (stereo not given)
2.94

Can you handle COc1cc(NC(=O)/C=C/c2cc3ccccc3n2C)ccc1OCCN(C(C)C)C(C)C next?
2.59

And for NS(=O)(=O)c1cccc(-c2ccc3nccc(-c4cccc(S(N)(=O)=O)c4)c3c2)c1 ?
3.10

Input CCOC(=O)c1cnc2c(OC)cc(OC)c(Cl)c2c1Nc1ccccc1
2.94

Param item: O=C(Nc1ccc(Cn2ncc(N3CCCNCC3)c(Cl)c2=O)cc1)Nc1ccc(SC(F)(F)F)cc1
2.72

Follow-up item: O=S(=O)(Nc1ccc(-c2ccc(CN3CCCC3)cc2)cc1)c1cccc2cccnc12
3.01

Note, next up: CCCNC[C@@H](O)[C@H](Cc1ccccc1)NC(=O)c1cc2c3c(c1)c(CC)cn3CCS(=O)(=O)N2C
2.00

Moving on to the next compound: CCN1CCN(c2cc(C)c3cc(NC(=O)c4ccc([N+](=O)[O-])c(C)c4)ccc3n2)CC1
2.82

Do the same for CCc1c(CCNCCCCCCNCCc2ccc(Br)cc2)ccc(OC)c1OC please
2.37

Would you mind doing O=C(Nc1ccc(OC2CCN(Cc3ccsc3)CC2)c(Cl)c1)c1ccc(F)cc1 as well?
2.81

// query: Oc1cc(NC[C@@H]2CCC[C@@H]2NCc2ccc(Cl)c(Cl)c2)nc2ccccc12
2.78

What do we get for Cc1nc(Nc2ccncc2)cc(-c2ccncc2)n1 ?
2.86

# iterate: COc1cccc2sc(Nc3nc(-c4ccccn4)cs3)nc12
2.91

Subsequent entry: O=S(=O)(Nc1cccc(CCN2CCC(N3CCCCC3)CC2)c1)c1ccc(Oc2ccccc2)nc1
2.97

Next compound: COc1cc2nccc(Nc3ccc(NC(=O)c4ccc(C)cc4)c(O)c3)c2cc1OC
2.24

What about CCc1ccc(NC(=O)c2ccc(CN3CCCN(CCC(C)C)CC3)cc2)cc1 ?
2.80

Likewise for CCCc1ccc(NC(=O)c2ccc(CN3CCCN(CC4CCCCC4)CC3)cc2)cc1 ?
2.72

Next record, please: O=C(/C=C/c1ccc(Cl)c(Cl)c1)NCCC1CCC(N2CCC(c3c[nH]c4ccccc34)CC2)CC1 (stereo not given)
2.29

And the next one, CCCCCC(NCCCC)c1ccc(OCCOc2ccc(C(CCCCC)NCCCC)cc2)cc1 (stereo not given) ?
3.09

Try this compound too: CC(C)CNCc1ccc(-c2ccc(CN(CCCN3CCN(C)CC3)C(=O)CCC3CCCC3)cc2)cc1
3.03

Field entry: Cc1ccc(O)c(CN2CCCC(COC(c3ccc(F)cc3)c3ccc(F)cc3)C2)c1 (stereo not given)
2.85

Note, next up: CC[C@H]1CN2CC[C@@H]1C[C@@H]2[C@@H](O)c1cc(-c2ccc(F)cc2)nc2ccc(OC)cc12
2.06

Same question, CCCCCCN1CCCN(Cc2ccc(C(=O)Nc3ccc(CCC)cc3)cc2)CC1 this time
2.82

Next up: Cc1cc(N2CCCC2)nc(Nc2ccc(NC(=O)C3CCCC3)cc2)n1
3.05

What would you report for Fc1ccc(CNc2ccc3ncc(-c4cccnc4)n3n2)cc1 ?
2.97

Can you check COc1ccc2nccc(NC(=O)C3(O)CCC(NCc4ccc5c(c4)NCCS5)CC3)c2n1 (stereo not given) next?
2.78

What do you have for CN(CCCCNC(=O)/C=C/c1ccccc1)C1CC2(CCN(C(=O)OC(C)(C)C)CC2)c2ccccc21 (stereo not given) ?
3.06

How about this compound: COc1ccc(-c2ccc(CNC(=O)c3ccc(Cl)cc3)c(F)c2)cc1CN1CCCN(C)CC1
2.85

Lookup CC(C)(C)c1cc2cc(Nc3ccnc4cc(-c5nccs5)ccc34)ccc2[nH]1
2.64

Now consider COc1cccc2cc(C(=O)N[C@@H](CC(C)C)C(=O)N[C@H](/C=N/NC(=O)Cc3cccnc3)CCc3ccccc3)oc12 .
2.98

Next up: NC(=O)c1ccccc1Nc1nc(Nc2cc[nH]n2)ncc1Cl
2.98

N#Cc1ccc(NC2(C(=O)N3CCN(c4cccc(Cl)c4)CC3)CC2)c2ccccc12 ?
3.06
